assay: IVIVE: steady-state concentration (Css), generic HTTK model; design: species or system human; conditions: fub=fup/(B:P); Fub set to 1 if needed
readout: Fub
Give your answer as a number; write no unit.

Observe how each entry below is paired with its result.
1. O=S(=O)(O)CCC(F)(F)C(F)(F)C(F)(F)C(F)(F)C(F)(F)C(F)(F)F :: 0.026
2. O=C(O)CCC(F)(F)C(F)(F)C(F)(F)C(F)(F)C(F)(F)C(F)(F)C(F)(F)F :: 0.009273
3. CCNS(=O)(=O)C(F)(F)C(F)(F)C(F)(F)C(F)(F)C(F)(F)C(F)(F)C(F)(F)C(F)(F)F :: 0.05255
4. O=C(O)C(F)(F)OC(F)(F)C(F)(F)OC(F)(F)F :: 0.005636
5. O=C(O)C(F)(F)C(F)(F)C(F)(F)C(F)(F)C(F)(F)C(F)(F)C(F)(F)C(F)(F)C(F)(F)C(F)(F)C(F)(F)C(F)(F)F :: 0.07873

For reference, reported Fub for O=C([O-])C(F)(F)C(F)(F)C(F)(F)C(F)(F)C(F)(F)C(F)(F)C(F)(F)F.[K+] [Potassium perfluorooctanoate (KPFOA)] stands at 0.003273

For reference, reported Fub for O=S(=O)(O)C(F)(F)C(F)(F)OC(F)(F)C(F)(F)F stands at 0.002727
